Test system: A172
Test: Cytotoxic activity in human cancer cell lines (72 h growth inhibition)
Assay type: cell-based
Details: A 172, Glioblastoma, 72 h incubation, mean ± SEM
measured.quantity: IC50

I'd like to know its IC50. The molecule in question is COc1cc([C@@H]2COc3c(ccc(O)c3C)[C@@H]2c2ccc(O)cc2)cc(OC)c1O [TRX-E-002-1]
51 nM

###

Assay: Rat GLP 28-day repeat-dose intraperitoneal toxicity study
Type: in vivo, SD rats
Settings: female, Sprague-Dawley, rat, plasma, ip; Day 1, 10 mg/kg, females
measured.quantity: Cmax (ng/mL)
State the answer as a number, implicitly in ng/mL.

I'd like to know its Cmax. The compound in question is "COc1cc([C@@H]2COc3c(ccc(O)c3C)[C@@H]2c2ccc(O)cc2)cc(OC)c1O"
535
